Reference for the values: patent US11084790B2

- procedure details: Systemic pharmacokinetic study of a bis(bupivacaine) pamoate suspension after a single subcutaneous injection at three points in a hind limb in SD rats
- Type: in vivo
- conditions used: male, rat, sc, single subcutaneous injection at three points in left hind limb, 5 mg/kg, bupivacaine in blood
Structures can show the parent of a compound that is named as a salt.
endpoint label: half-life (h)

CCCCN1CCCCC1C(=O)Nc1c(C)cccc1C (stereo not shown) [bupivacaine hydrochloride]: 1

---

- procedure details: Test on the solubility in a simulated body fluid
- Assay type: physicochemical
- conditions used: 0.01 M PBS pH 7.4, 37° C., 1 h
endpoint label: Compound concentration: Pamoic acid (µM)

CCCCN1CCCCC1C(=O)Nc1c(C)cccc1C.CCCCN1CCCCC1C(=O)Nc1c(C)cccc1C.O=C(O)c1cc2ccccc2c(Cc2c(O)c(C(=O)O)cc3ccccc23)c1O [Preparation Example 12, bis(bupivacaine) pamoate]: 137.5
CCCCN1CCCCC1C(=O)Nc1c(C)cccc1C.CCCCN1CCCCC1C(=O)Nc1c(C)cccc1C.O=C(O)c1cc2ccccc2c(Cc2c(O)c(C(=O)O)cc3ccccc23)c1O [Preparation Example 15, bis(bupivacaine) pamoate]: 127.8
CCCN1CCCC[C@H]1C(=O)Nc1c(C)cccc1C.O=C(O)c1cc2ccccc2c(Cc2c(O)c(C(=O)O)cc3ccccc23)c1O [Preparation Example 9, mono(ropivacaine) pamoate]: 1280.8
CCCCN1CCCCC1C(=O)Nc1c(C)cccc1C.O=C(O)c1cc2ccccc2c(Cc2c(O)c(C(=O)O)cc3ccccc23)c1O [Preparation Example 10, mono(bupivacaine) pamoate]: 981.6
CCCCN1CCCCC1C(=O)Nc1c(C)cccc1C.CCCCN1CCCCC1C(=O)Nc1c(C)cccc1C.O=C(O)c1cc2ccccc2c(Cc2c(O)c(C(=O)O)cc3ccccc23)c1O [Preparation Example 29, bis(bupivacaine) pamoate]: 119.5
CCCCN1CCCCC1C(=O)Nc1c(C)cccc1C.CCCCN1CCCCC1C(=O)Nc1c(C)cccc1C.O=C(O)c1cc2ccccc2c(Cc2c(O)c(C(=O)O)cc3ccccc23)c1O [Preparation Example 30, bis(bupivacaine) pamoate]: 135.6
